Exercise: state measured Size (nm) for each of the molecules provided.
# Protocol Text: DLS size and polydispersity of hEPO mRNA lipid nanoparticles
# Assay type: physicochemical
# Condition Summary: Table 3, further LNPs; hEPO mRNA LNP, Cationic Lipid:DMG-PEG2000:Cholesterol:DOPE=40:1.5:28.5:30, N/P ratio 4, Process A
Report the value in nm with no unit label.

Incoming: Which Size (nm) reading was recorded for the molecule CCCCCCCCCCC(O)CN(CCCNC(=O)CC(C)(C)CC(=O)NCCCN(CC(O)CCCCCCCCCC)CC(O)CCCCCCCCCC)CC(O)CCCCCCCCCC (stereo not shown) ?
Outgoing: 123

Incoming: Which Size (nm) reading was recorded for the molecule CCCCCCCCCCCOC(=O)CCCC(O)CN(CCCCN(C)C(=O)CN(C)CC(=O)N(C)CCCCN(CC(O)CCCCCC(=O)OC(CCCCCCCC)CCCCCCCC)CC(O)CCCC(=O)OCCCCCCCCCCC)CC(O)CCCCCC(=O)OC(CCCCCCCC)CCCCCCCC (stereo not shown) ?
Outgoing: 114

Incoming: Which Size (nm) reading was recorded for the molecule CCCCCCCCCCC(O)CN(CCCOC(=O)N[C@@H](Cc1c[nH]cn1)C(=O)OCCCN(CC(O)CCCCCCCCCC)CC(O)CCCCCCCCCC)CC(O)CCCCCCCCCC (stereo partly shown) ?
Outgoing: 93

Incoming: Which Size (nm) reading was recorded for the molecule CCCCCCCCC(O)CN(CCCNC(=O)CC(C)(O)CC(=O)NCCCN(CC(O)CCCCCCCC)CC(O)CCCCCCCC)CC(O)CCCCCCCC (stereo not shown) ?
Outgoing: 100

Incoming: Which Size (nm) reading was recorded for the molecule CCCCCCCCCCC(=O)OCCCCC(O)CN(CCCCNC(=O)CC(C)(O)CC(=O)NCCCCN(CC(O)CCCCCOC(=O)C(CCCCCCCC)CCCCCCCC)CC(O)CCCCOC(=O)CCCCCCCCCC)CC(O)CCCCCOC(=O)C(CCCCCCCC)CCCCCCCC (stereo not shown) ?
Outgoing: 138

Incoming: Which Size (nm) reading was recorded for the molecule CCCCCCCCCCC(O)CN(CCCOC(=O)[C@H](Cc1ccccc1)NC(=O)CCCN(CC(O)CCCCCCCCCC)CC(O)CCCCCCCCCC)CC(O)CCCCCCCCCC (stereo partly shown) ?
Outgoing: 94

Incoming: Which Size (nm) reading was recorded for the molecule CCCCCCCCCCC(O)CN(CCCOC(=O)[C@H](Cc1c[nH]c2ccccc12)NC(=O)CCCN(CC(O)CCCCCCCCCC)CC(O)CCCCCCCCCC)CC(O)CCCCCCCCCC (stereo partly shown) ?
Outgoing: 135

Incoming: Which Size (nm) reading was recorded for the molecule CCCCCCCCCCC(O)CN(CCCOC(=O)N[C@@H](Cc1ccccc1)C(=O)OCCCN(CC(O)CCCCCCCCCC)CC(O)CCCCCCCCCC)CC(O)CCCCCCCCCC (stereo partly shown) ?
Outgoing: 125

Incoming: Which Size (nm) reading was recorded for the molecule CCCCCCCCCCC(O)CN(CCCOC(=O)[C@H](CCc1ccc(O)cc1)NC(=O)CCCN(CC(O)CCCCCCCCCC)CC(O)CCCCCCCCCC)CC(O)CCCCCCCCCC (stereo partly shown) ?
Outgoing: 108

Incoming: Which Size (nm) reading was recorded for the molecule CCCCCCCCCCC(O)CN(CCCOC(=O)[C@H](CCc1ccccc1)NC(=O)CCCN(CC(O)CCCCCCCCCC)CC(O)CCCCCCCCCC)CC(O)CCCCCCCCCC (stereo partly shown) ?
Outgoing: 123
